Measured Target: α-amylase (Sus scrofa, UniProt P00690)
Construct: purchased Adamas-beta Reagents Co., Ltd. (Shanghai, China); host or cells: porcine pancreas
Sequence (P00690 16-511): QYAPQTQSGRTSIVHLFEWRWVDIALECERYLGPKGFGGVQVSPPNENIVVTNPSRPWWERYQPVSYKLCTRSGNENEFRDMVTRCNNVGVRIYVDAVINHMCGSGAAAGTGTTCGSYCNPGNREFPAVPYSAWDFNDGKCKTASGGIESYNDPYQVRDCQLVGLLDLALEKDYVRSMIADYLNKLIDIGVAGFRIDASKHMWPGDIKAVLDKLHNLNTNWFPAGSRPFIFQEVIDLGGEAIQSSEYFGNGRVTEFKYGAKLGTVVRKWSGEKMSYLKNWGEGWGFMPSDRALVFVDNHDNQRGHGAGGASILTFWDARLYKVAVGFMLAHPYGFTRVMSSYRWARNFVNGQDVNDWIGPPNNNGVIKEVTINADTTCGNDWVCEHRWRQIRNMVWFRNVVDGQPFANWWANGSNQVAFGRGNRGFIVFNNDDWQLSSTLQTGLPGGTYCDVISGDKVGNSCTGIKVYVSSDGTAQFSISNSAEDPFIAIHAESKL
Assay Explanation: Affinity ultrafiltration MTAUF-UPLC-MS/MS of DE with α-amylase
Assay type: binding, porcine
Condition Label: peak area with active / inactivated enzyme; DE 5.0 mg·mL^−1
Observable: relative binding affinity (RBA) toward α-amylase

- Compound: "C=C1CC[C@]2(C)CC[C@]3(C)[C@H](CC[C@@H]4[C@@]5(C)CC[C@H](O)C(C)(C)[C@@H]5CC[C@]43C)[C@H]2[C@@H]1C"
  Result: "less than 1"
- Compound: "O=C(O)c1ccc(O)cc1 [Compound 3, 4-hydroxybenzoic acid]"
  Result: "less than 1"
- Compound: "COc1cc(-c2cc(=O)c3c(O)cc(O)cc3o2)cc(OC)c1O[C@H](CO)[C@@H](O)c1ccc(O)cc1"
  Result: "less than 1"
